- Measured on: HLA-A*01:01 (Homo sapiens, UniProt P04439, A114D/A174V/A182V/D101N/D185E/E176A/E190D/L180R/Q94H/R68K/S129P/T187R/V100A/V91M/W191G)
- Test method notes: MHC binding assay, UV-ligand exchange with β2m ELISA, HLA-A*01:01
- Condition context: peptide exchange yield
Attribute measured: Peptide exchange

Substance	Attribute measured	Endpoint result
194 (YTDKKSIIY; listed as Homo sapiens) [compound 194]	Peptide exchange	“+++” (>50 =+++)
14 (TFDLTVVSY; listed as Homo sapiens) [compound 14]	Peptide exchange	“++” (>20% = ++)
10 (YSDIGHLL; listed as Homo sapiens) [compound 10]	Peptide exchange	“++” (>20% = ++)
12 (ATDIVDSQY; listed as Homo sapiens) [compound 12]	Peptide exchange	“+++” (>50 =+++)
189 (VTEEPQRLFY; listed as Homo sapiens) [compound 189]	Peptide exchange	“++++” (>75% = ++++)
193 (LTDSEKGNSY; listed as Homo sapiens) [compound 193]	Peptide exchange	“+++” (>50 =+++)
195 (YSDKEFAGSY; listed as Homo sapiens) [compound 195]	Peptide exchange	“++++” (>75% = ++++)
15 (SVADIRNAY; listed as Homo sapiens) [compound 15]	Peptide exchange	“++” (>20% = ++)
4 (ALDQNKMHY; listed as Homo sapiens) [compound 4]	Peptide exchange	“+++” (>50 =+++)
11 (AAADHHSLY; listed as Homo sapiens) [compound 11]	Peptide exchange	“+++” (>50 =+++)
188 (YVDAGTPMY; listed as Homo sapiens) [compound 188]	Peptide exchange	“+++” (>50 =+++)
192 (RSDPGGGGLAY; listed as Homo sapiens) [compound 192]	Peptide exchange	“+++” (>50 =+++)
13 (ITDIHIKY; listed as Homo sapiens) [compound 13]	Peptide exchange	“++++” (>75% = ++++)
